Ref: PubChem BioAssay AID2391

# Measurement Description: inhibition of RSV-induced cytopathic effect – HEp-2 cells, primary 10 µM value included (AID 2391)
# Measurement Context: at 10 µM, hits give high values
Among all 310,000 compounds or so, about 410 (0.13%) were called active. Not shown: some 2% with an inconclusive outcome. A selection follows. Potency and affinity values are given separately.
The reader will find reported CPE inhibition values listed item by item below.
Report the figure in % without appending any unit label.

compound=COc1cc(N)c(Cl)cc1C(=O)OCC(=O)Nc1cccnc1Cl observed_value=0.52

// query Form field: reported CPE inhibition of CCc1nc2sc3ccccc3c(=O)c2c(=O)n1Cc1ccco1
// result 10.5

// query Form field: reported CPE inhibition of COCCn1c(-c2cccc(Br)c2)nc2c(c(=O)c3ccccc3n2C)c1=O
// result 45.9

// query Form field: reported CPE inhibition of O=C1c2ccccc2C(=O)N1CCc1csc(-c2ccccc2)n1
// result 3.44

// query Form field: reported CPE inhibition of CCCCCc1nc2c(c(=O)c3ccccc3n2C)c(=O)n1Cc1ccc(OC)cc1
// result 56.9

// query Form field: reported CPE inhibition of Cc1ccc(C)c(NC(=O)CN(C)C(=O)c2ccc(S(=O)(=O)N3CCCCCC3)cc2)c1
// result 0.63

// query Form field: reported CPE inhibition of Cn1c2ccccc2c(=O)c2c(=O)n(Cc3ccco3)c(-c3ccc(C(C)(C)C)cc3)nc21
// result 6.32

// query Form field: reported CPE inhibition of CCOc1ccc(-c2cc(C(=O)N/N=C(\C)c3cccnc3)c3ccccc3n2)c(OCC)c1
// result 0.9

// query Form field: reported CPE inhibition of Cc1ccc2c(C)c(C(=O)N3CCN(c4cnccn4)CC3)oc2c1C
// result 16.7
